Could you please report measured apparent Kd for the items listed next?
Test system: MS2 coat protein
Assay: apparent Kd, MS2 coat protein; higher = weaker binding; RNA-MaP array; tryptophan 2.4 mM where present
Conditions: designed as: ON switch for tryptophan; no ligand
One number for each entry, in nM.

Problem: May I ask what apparent Kd has been recorded for "AGCCGGAUUACGGCCGCCACUGUAGACGUGACGAAAGUCGCGUCAACAUGAGGAUCACCCAUGUACAGGACCGGGUGGUCGGGCG" ?
Solution: 161

Required: apparent Kd, one value per sequence below.
1. GGGUACAUCGCGGCCGCCACUUAUGUAAAUACAUGAGGAUCACCCAUGUCGAUGGAGACAUCGGAAAGGACCGGGUGAUGUACCG
2. ACAUGAGGAUCACCCAUGUGCAUGAUGAUCCGAGGACCGGUACGGCCGCCACUCGUCAUGAUGAUCUUUCAUGUUUGUCGCGCGC
3. UCGUUUUAGUCGGCCGCCACUGUGAGCAUGGUUAACAUGAGGAUCACCCAUGUCCCGUACUAUAACAGGACCGGGACGUAGUUGC
4. GGUUACUCUACGGCCGCCACUGAUUAUUUAUAAUCCUGUACAUAAACAUGAGGAUCACCCAUGUACAGGACCGGGUAGUGUAACC
5. CUAAAUAUAUCGGCCGCCACUUACUCAUGAGGUAACAACAUGAGGAUCACCCAUGUUUGAGGAUCAAGGACCGGGAUAUAUUUAG

Solution:
[198, 329, 93, 33.8, 27.8]

----------
Test system: MS2 coat protein
Test: apparent Kd, MS2 coat protein; higher = weaker binding; RNA-MaP array
Conditions: ligand present: flavin mononucleotide; designed as: ON switch for flavin mononucleotide
readout_label: apparent Kd (nM)
One number for each entry, in nM.

Problem: May I ask what apparent Kd has been recorded for "CAAUGGCAGUUGCAGGAUAUUCGGCCGGACACAUGAGGAUCACCCAUGUAGGUUCUCCCAUGGAUGAAGAAGGGCACAACAGAAAC" ?
Solution: 66.4

Required: apparent Kd, one value per sequence below.
1. CGUGAAUACGAAGGAUAUGAAACAUGAGGAUCACCCAUGUAAGGUUUAAGCGACGGCUUGACAGGUCAGAAGGUCGUCCGCAUG
2. ACAUGAGGAUCACCCAUGUUCACGGUUCACGAAGUCUAAAGCUAGGAUAUCAUUGGGUGGGCGCAUGAGAAGGAGCUUCCCGUA

Solution:
[27.8, 44.3]

----------
Could you please report measured apparent Kd for the items listed next?
Test system: MS2 coat protein
Test: apparent Kd, MS2 coat protein; higher = weaker binding; RNA-MaP array
Settings: designed as: ON switch for tryptophan; no ligand
One number for each entry, in nM.

Some sequences with known apparent Kd results, for comparison:
Problem: May I ask what apparent Kd has been recorded for "CAGAACAUGAGGAUCACCCAUGUAAACGACCGAGGACCGGUACGGCCGCCACUCGAUAUGUCUUGAGGGAGAUAUGGAUUCACAU" ?
Solution: 39.9

Problem: Would you mind doing "GCAAAGUGAUCGGCCGCCACUGCAAUGCUUAAUGGAGGUCCACAUGAGGAUCACCCAUGUCUUCCCAGGACCGGGAUCUCGAGUU" as well?
Solution: 60.7

Problem: Would you mind doing "UAGAAACGUACGGCCGCCACUCGGAAUUGGCUCAGACCAUACGUACAUGAGGAUCACCCAUGUUAGAGGACCGGGUAUAAUCUAA" as well?
Solution: 26.7

# ---- query sequence ----
Problem: May I ask what apparent Kd has been recorded for "UAAAACAUGAGGAUCACCCAUGUAUUGAGUCGAGGACCGGUACGGCCGCCACUCGGCAAUAAUAACGACGCAUAGCAUGUAGGAA" ?
Solution: 12.7

----------
Could you please report measured apparent Kd for the items listed next?
Test system: MS2 coat protein
Experiment: apparent Kd, MS2 coat protein; higher = weaker binding; RNA-MaP array
Settings: designed as: ON switch for flavin mononucleotide; no ligand
One number for each entry, in nM.

Problem: May I ask what apparent Kd has been recorded for "GGACAACAUGAGGAUCACCCAUGUGAGAAGUGCAAAGGAUAUCGCAGAAGUGAUAACGAACGAGAAGGUUGCCUCU" ?
Solution: 23.6

Problem: Would you mind doing "AUGGUGUCUUAAGGAUAUGCUCGACAUGAGGAUCACCCAUGUGCCUCGUUUUCCCAACCGAGGUCGCAGAAGGUAAGUGACGUG" as well?
Solution: 313

Problem: Would you mind doing "AAAAGAAGCUGAGGAUAUUGGUUAACAUGAGGAUCACCCAUGUCGUUGGUGGAAAACACCUGACGCAAGAAGGCAGACACUUAU" as well?
Solution: 15.7

Required: apparent Kd, one value per sequence below.
1. GGUCUGCCAUUUCAGGAUAUGCUCAGUGCAACAUGAGGAUCACCCAUGUCAGGCUCGAACGACUCGCAGAAGGGAAGUCACGGAUG
2. GUGAUACUUGGAGGAUAUGCUUUCACCUGGUACUCUAUUACAGUGACAUGAGGAUCACCCAUGUAGCAGAAGGCCAGUCAUCGA

Solution:
[102, 18.8]

Required: apparent Kd, one value per sequence below.
1. UAAAUCUUACAACACAUGAGGAUCACCCAUGUACGGGCGGGAUAGGAUAUCGAAAUGGUCUCAAACGAGAAGGAUCCUUCUUAU
2. ACUCUCGGCUAAGGAUAUCUCCGACUGACCAAUAGAGAAGGUAGUCGACGUGCGAUCAGACAUGAGGAUCACCCAUGUGAAAUC

Solution:
[46.7, 7.07]

----------
Test system: MS2 coat protein
Assay: apparent Kd, MS2 coat protein; higher = weaker binding; RNA-MaP array
Settings: ligand present: flavin mononucleotide; designed as: OFF switch for flavin mononucleotide
Note to self: values exactly at 30 nM are true (1). So apparent Kd at or above 30 nM is true (1), below is false (0).

Problem: Can "CUUUACUGAGGAUAUACGCAGAUCUAGAUAUCGUAAUACGAACAUGAGGAUCACCCAUGUAGAAGGCAGGCCGA" be said to have apparent Kd at or above 30 nM?
Solution: false (0)

Problem: Would you mind doing "CACCCUAAAGGAUAUACAGCAUAGAAAACGGGUAAGUCUAAACAUGAGGAUCACCCAUGUAGAAGGUUAGAAUU" as well?
Solution: false (0)

Problem: Would you mind doing "GAUUGACAUGAGGAUCACCCAUGUAGCGUAUGGUGACUUCUGAAGGAUAUUAAUGCAGUGGCGGUUAAGAAGGUCAGCUAAUCG" as well?
Solution: true (1)

Problem: Would you mind doing "UACUCGACUUAGAAGGGUUUGUGGACAGCCAGUGGCGUGCGUACAUGAGGAUCACCCAUGUCUCAACAGGAUAUAAGCAUUAGC" as well?
Solution: false (0)

New cases:
Problem: Can "AAAACUAAAGUCAGGAUAUAACGAAUCGAAGAUAGAUAGAAGGGACAUGAGGAUCACCCAUGUGAGGAAGACAA" be said to have apparent Kd at or above 30 nM?
Solution: false (0)

Problem: Would you mind doing "UGUAUCUCGCAGAAGGCAGGUUAAGCAACAAACUGAGGAUAUGCGUAUACAUGAGGAUCACCCAUGUUCACUGAUCGCAAAUUC" as well?
Solution: true (1)

Problem: Would you mind doing "GAUCAACAUGAGGAUCACCCAUGUUAGGAUAUCACACCGGAAAGUGAAAUGCUUUUCUUGAGAAGGAACAAGGC" as well?
Solution: false (0)

Problem: Would you mind doing "CCGAGGGUAGGAUAUUAGCACUUCUACAUGAGGAUCACCCAUGUACCUCAUCAUGAUGCCUAAGAAGGACCAGUGU" as well?
Solution: true (1)

Problem: Would you mind doing "UGUUUGGCUUCCUUUACAUGAGGAUCACCCAUGUUAUGUAAUUAGGAUAUCCAUGUGAGAUGGUUGGAGAAGGAAUGCAUGACG" as well?
Solution: true (1)

Problem: Would you mind doing "AGUGUAAUAUAAGGAUAUAACCGCACAAGAAUGUUAGAAGGUAUUUUACAUGAGGAUCACCCAUGUGAAUGUAGUCCUCACUAU" as well?
Solution: false (0)

----------
Test system: MS2 coat protein
Assay: apparent Kd, MS2 coat protein; higher = weaker binding; RNA-MaP array
Details: designed as: ON switch for flavin mononucleotide; no ligand
Note to self: values exactly at 50 nM are Satisfied. So apparent Kd at or above 50 nM is Satisfied, below is Not satisfied.

Problem: Can "GAUAUGGUGGCUCAGGAUAUGCAAGGCUUAACAUGAGGAUCACCCAUGUUAUUUAAUGUGCAAGCGCAGAAGGGAGCUUGGCAAAA" be said to have apparent Kd at or above 50 nM?
Solution: Not satisfied

Now consider the entry below.
Problem: Can "UCAACACAUGAGGAUCACCCAUGUUAUACUAGGGUAGGAUAUGACGUAGUGAAGUGCUCUUCAGAAGGACCAUGGG" be said to have apparent Kd at or above 50 nM?
Solution: Satisfied
